IC50 for Cytochrome P450 1A2 (Homo sapiens), merged from several publications.

C[C@]1(c2cc(NC(=O)c3cnc(OCF)cn3)ccc2F)N=C(N)O[C@H](CF)[C@@H]1OCC(F)(F)F; ≥ 20 µM

Tested system Cytochrome P450 1A2 (Homo sapiens); IC50 recorded for C[C@]1(c2cc(NC(=O)c3ccc(C#N)cn3)ccc2F)N=C(N)O[C@H](C2(F)CC2)[C@@H]1F was ≥ 20 µM

Tested system Cytochrome P450 1A2 (Homo sapiens); IC50 recorded for Fc1cc(F)c(F)c(-c2ccc(N[C@H]3C[C@@H]4CN(CC5CCOCC5)C[C@@H]4C3)nn2)c1 was > 30 µM

Tested system Cytochrome P450 1A2 (Homo sapiens); IC50 recorded for COc1cnc(C(=O)Nc2ccc(F)c([C@@]3(C)N=C(N)O[C@H](C(C)(F)F)[C@@H]3F)c2)cn1 was ≥ 20 µM

Tested system Cytochrome P450 1A2 (Homo sapiens); IC50 recorded for CO[C@H]1[C@@H](CF)OC(N)=N[C@]1(C)c1cc(NC(=O)c2ccc(F)cn2)ccc1F was ≥ 20 µM

Tested system Cytochrome P450 1A2 (Homo sapiens); IC50 recorded for Cc1cnc(Nc2cnn(CC#N)c2)nc1-c1ccc(C(=O)NCC#N)cc1 was 45.8 µM

Tested system Cytochrome P450 1A2 (Homo sapiens); IC50 recorded for Cc1cc(OC(F)(F)F)ccc1-c1ccc2nnc(C(F)F)n2n1 was 1 to 15 µM

Tested system Cytochrome P450 1A2 (Homo sapiens); IC50 recorded for Cc1cc(C(=O)Nc2ccc(F)c([C@]3(C)C=CSC(N)=N3)c2)n(C)c1 was > 20 µM
